All figures here come from patent US20250313625A1.

- study_system: T1, human LAG3, full length, stably expressed on cells (human, UniProt P18627 23-525)
- T1 construct: whole, on cells; also called CHOK1-human LAG3
- T1 sequence (looked up): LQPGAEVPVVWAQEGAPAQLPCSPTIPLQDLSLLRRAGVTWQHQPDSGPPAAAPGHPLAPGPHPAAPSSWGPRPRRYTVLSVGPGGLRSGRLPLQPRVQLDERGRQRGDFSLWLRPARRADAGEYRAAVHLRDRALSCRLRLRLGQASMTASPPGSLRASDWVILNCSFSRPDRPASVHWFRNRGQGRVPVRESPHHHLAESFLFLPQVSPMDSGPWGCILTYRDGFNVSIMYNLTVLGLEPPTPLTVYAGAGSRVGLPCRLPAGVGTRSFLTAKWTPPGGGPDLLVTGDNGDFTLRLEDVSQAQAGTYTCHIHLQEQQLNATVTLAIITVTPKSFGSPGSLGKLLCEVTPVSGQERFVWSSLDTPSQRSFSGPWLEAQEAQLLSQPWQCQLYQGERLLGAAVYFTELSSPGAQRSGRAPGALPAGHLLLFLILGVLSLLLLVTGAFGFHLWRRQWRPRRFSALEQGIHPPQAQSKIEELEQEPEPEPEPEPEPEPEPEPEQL
- assay_name: FACS on 293F-human LAG3 cells
Recorded EC50, one value per entry.
Give the value in nM but do not write nM after it.

Antibody 029 (antibody, V domains shown, mouse hybridoma antibody) VH: DVKLVESGEDLVKPGGSLKLSCAASGFTFSSYAMSWVRQTPEKRLEWVAYVTSGGDYIYYADTVKGRFTISRDDVRNTLYLQMSSLKSEDTAMYYCTRVAYDYEWYFDVWGTGAPVTVSS VL: DIVMTQSHKFMSTSVGDRVSITCKASQDVTTAVAWYQQKPGQSPKLLIYSASYRYTGVSDRFTGSGSGTDFTFTISSVQAEDLALYYCQQHDSSPWTFGGGTKLEIK	4.58

Prompt line: GET /values?readout=EC50&item= Antibody 048 (antibody, V domains shown, mouse hybridoma antibody) VH: EFQVQQSGPELVKPGASVKISCKASGYSFSDYNMNWLKQSTGKSLEWIGLVDPIYGTIRYNQKFKGKATLTVDQSSSTAYMQLNSLTSEDSAVYYCALITTSVRYFDYWGQGTTLTVSS VL: DVLMTQTPLSLPVSLGDQASISCRSSQNIVHTDGNTYLEWYLQKPGQSPKLLIYKVSNRFSGVPDRFSGSGSGTDFTLKISRVEAEDLGVYYCFQGSHVPPTFGGGTKLEIK
Response line: 1.19
